ASSAYED_TARGET: human GPR17 short isoform (Homo sapiens, UniProt Q13304)
Sequence (Q13304 29-367): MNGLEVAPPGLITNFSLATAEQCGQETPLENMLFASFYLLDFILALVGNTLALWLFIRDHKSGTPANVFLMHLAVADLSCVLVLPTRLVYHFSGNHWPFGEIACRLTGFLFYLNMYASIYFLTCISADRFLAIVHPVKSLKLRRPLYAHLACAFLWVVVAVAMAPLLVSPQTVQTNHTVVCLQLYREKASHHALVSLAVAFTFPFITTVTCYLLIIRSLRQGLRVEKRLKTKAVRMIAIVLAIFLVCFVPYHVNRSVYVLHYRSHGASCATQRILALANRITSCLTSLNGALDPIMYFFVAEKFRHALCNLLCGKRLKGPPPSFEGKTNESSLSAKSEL
ASSAY_TEXT: GPR17 cAMP assay (hGPR17 cAMP, TR-FRET, antagonist mode)
ASSAY_SETUP: CHO-K1 cells stably expressing human GPR17 short isoform; EC80 of agonist MDL29,951; forskolin 15 μM; 30 min at room temperature
PROPERTY_MEASURED: IC50 (nM)

I. COc1nc(OCC(F)F)c(F)cc1NS(=O)(=O)c1cnc2n1CCC(C)O2 (stereo not shown)
II. COc1nc(NS(=O)(=O)c2cnn3cc(Br)ccc23)c(F)cc1OC(F)F
III. COc1nc(OCC(F)F)c(F)cc1NS(=O)(=O)c1cnc2c(OC)c(Cl)ccn12
Input: Output the listed items in decreasing order of IC50. Order the labels as requested and list them.
Output: I, III, II

----------
ASSAYED_TARGET: human GPR17 short isoform (Homo sapiens, UniProt Q13304)
ASSAY_TEXT: GPR17 cAMP assay (hGPR17 cAMP, TR-FRET, antagonist mode)
ASSAY_SETUP: CHO-K1 cells stably expressing human GPR17 short isoform; EC80 of agonist MDL29,951; forskolin 15 μM; 30 min at room temperature
PROPERTY_MEASURED: IC50 (nM)

I. COc1cc(CC#N)c(F)cc1NS(=O)(=O)c1cnc2cc(C3CC3)ccn12
II. COc1nc(C2CC2)c(F)cc1NS(=O)(=O)c1cnn2cc(Br)ccc12
Input: Which entry has a larger number for IC50, I or II ? API: response body contains the label of the selected item.
Output: II
(II: 100 nM, I: 4 nM)

a. COc1nc(OCC(F)F)c(F)cc1NS(=O)(=O)c1cnc2n1CCCC2C (stereo not drawn)
b. COc1nc(OCC(F)F)c(F)cc1NS(=O)(=O)c1cnc2cc(C(C)(C)O)ccn12
c. COc1nc(OCC(F)F)c(F)cc1NS(=O)(=O)c1cnc2cc(Br)ccn12
d. COc1nc(NS(=O)(=O)c2cnc3cc(Cl)ccn23)c(F)cc1CC(F)F
Input: Reorder the items by IC50, least to greatest. Order the labels as requested and list them.
Output: c, d, b, a

P. COc1nc(NS(=O)(=O)c2cnc3cc(Br)ccn23)c(F)cc1OCCF
Q. COc1nc(NS(=O)(=O)c2cnc3cc(Br)ccn23)c(F)cc1OC(F)F
Input: Given the listed items, does P or Q have the lesser reported IC50? API: response body contains the label of the selected item.
Output: Q

----------
ASSAYED_TARGET: human GPR17 short isoform (Homo sapiens, UniProt Q13304)
ASSAY_TEXT: GPR17 cAMP assay (hGPR17 cAMP, TR-FRET, antagonist mode)
ASSAY_SETUP: CHO-K1 cells stably expressing human GPR17 short isoform; EC80 of agonist MDL29,951; forskolin 15 μM; 30 min at room temperature
PROPERTY_MEASURED: IC50 (nM)

1. COc1c(C)ccn2c(S(=O)(=O)Nc3cc(F)c(CC#N)cc3F)cnc12
2. O=S(=O)(Nc1cc(F)c(OC(F)F)nc1OC(F)F)c1cnc2nc(C3CC3)ccn12
Input: Given the listed items, does 1 or 2 have the lesser reported IC50? API: response body contains the label of the selected item.
Output: 1
(1: 40 nM, 2: 132 nM)

----------
ASSAYED_TARGET: human GPR17 short isoform (Homo sapiens)
ASSAY_TEXT: GPR17 cAMP assay (hGPR17 cAMP, TR-FRET, antagonist mode)
ASSAY_SETUP: CHO-K1 cells stably expressing human GPR17 short isoform; EC80 of agonist MDL29,951; forskolin 15 μM; 30 min at room temperature
PROPERTY_MEASURED: IC50 (nM)

// worked examples, IC50 included
[[record]]
molecule = "COc1nc(OCC(F)F)c(F)cc1NS(=O)(=O)c1cnc2cc(C(F)F)ccn12"
result_unit = "nM"
readout_value = 18

[[record]]
molecule = "COc1c(C)ccn2c(S(=O)(=O)Nc3cc(F)c(Br)cc3F)cnc12"
result_unit = "nM"
readout_value = 137

[[record]]
molecule = "Cc1ccn2c(S(=O)(=O)Nc3cc(F)c(CC#N)cc3F)cnc2n1"
result_unit = "nM"
readout_value = 1030

[[record]]
molecule = "COc1nc(C2COC2)c(F)cc1NS(=O)(=O)c1cnn2cc(Br)ccc12"
result_unit = "nM"
readout_value = 367

[[record]]
molecule = "COc1nc(OC(F)F)c(F)cc1NS(=O)(=O)c1cnc2nc(C3CC3)ccn12"
result_unit = "nM"
readout_value = 31


P. COc1nc(OCC(F)F)c(F)cc1NS(=O)(=O)c1cnc2c(C#N)c(Cl)ccn12
Q. N#CCc1cc(F)c(NS(=O)(=O)c2cnc3cc(Cl)ccn23)cc1F
R. COc1nc(OCC(F)F)c(F)cc1NS(=O)(=O)c1cnc2cc(C3CC3)ccn12
S. COc1nc(NS(=O)(=O)c2cnc3nc(C4CC4)ccn23)c(F)cc1CC(F)F
Input: Given 4 molecules, produce a descending ranking by IC50. Order the labels as requested and list them.
Output: Q, P, S, R

1. COc1nc(OCC(F)F)c(F)cc1NS(=O)(=O)c1cnc2nc(Cl)ccn12
2. COc1nc(NS(=O)(=O)c2cnc3cc(Cl)ccn23)nc(OC)c1OCC(F)F
Input: Which entry has a larger number for IC50, 1 or 2 ? API: response body contains the label of the selected item.
Output: 2

----------
ASSAYED_TARGET: human GPR17 short isoform (Homo sapiens)
ASSAY_TEXT: GPR17 cAMP assay (hGPR17 cAMP, TR-FRET, antagonist mode)
ASSAY_SETUP: CHO-K1 cells stably expressing human GPR17 short isoform; EC80 of agonist MDL29,951; forskolin 15 μM; 30 min at room temperature
PROPERTY_MEASURED: IC50 (nM)

[[record]]
molecule = "COc1ccn2c(S(=O)(=O)Nc3cc(F)c(OCC(F)F)nc3OC)cnc2n1 [Example 37]"
assayed_target = "human GPR17 short isoform (Homo sapiens)"
property_measured = "IC50"
readout_value = 56

[[record]]
molecule = "O=S(=O)(Nc1cc(F)c(OC(F)F)cc1F)c1cnn2cc(Br)ccc12 [Example 85]"
assayed_target = "human GPR17 short isoform (Homo sapiens)"
property_measured = "IC50"
readout_value = 251

[[record]]
molecule = "COc1nc(OCC(F)F)c(F)cc1NS(=O)(=O)c1cnc2cc(C(F)(F)F)ccn12 [Example 31]"
assayed_target = "human GPR17 short isoform (Homo sapiens)"
property_measured = "IC50"
readout_value = 38


I. COc1nc(OCC(F)F)c(F)cc1NS(=O)(=O)c1cnc2cc(C3COC3)ccn12 [Example 100]
II. COc1nc(OCC(F)F)c(F)cc1NS(=O)(=O)c1cnc2n1CCC(C(F)(F)F)C2 (stereo not drawn) [Example 41]
III. COc1nc(OC(F)F)c(F)cc1NS(=O)(=O)c1cnc2cc(C)ccn12 [Example 13]
IV. COc1nc(NS(=O)(=O)c2cnc3cc(C4COC4)ccn23)c(F)cc1CC(F)F [Example 102]
Input: Reorder the items by IC50, least to greatest. Order the labels as requested and list them.
Output: III, I, II, IV

P. COc1c(C)ccn2c(S(=O)(=O)Nc3cc(F)c(C#N)cc3F)cnc12 [Example 98]
Q. COc1nc(OCC(F)F)c(F)cc1NS(=O)(=O)c1cnc2c(C#N)c(C)ccn12 [Example 27]
Input: Which entry has a larger number for IC50, P or Q ? API: response body contains the label of the selected item.
Output: P
